Values from paper PMC5962679

system_name: HLA-DRB1*1101 (Homo sapiens, UniProt P01903+P01911, A100R/A169T/A87E/I96F/K41T/L162R/M171V/P40S/Q125H/Q178H/Q39Y/Q99D/R42S/S66Y/T262R/V115G/W38E)
Sequence (P01903 26-254 limits assumed, other chains not shown): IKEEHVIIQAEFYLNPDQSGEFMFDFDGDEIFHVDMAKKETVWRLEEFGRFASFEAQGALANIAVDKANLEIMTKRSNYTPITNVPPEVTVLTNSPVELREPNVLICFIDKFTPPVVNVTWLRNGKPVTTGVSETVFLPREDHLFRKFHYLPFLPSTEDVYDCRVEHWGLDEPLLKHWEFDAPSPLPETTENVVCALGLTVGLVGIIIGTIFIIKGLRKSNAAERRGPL
experimental_protocol: biochemical
Format: binding
Ends that are not written are not given here.
measurement_kind: IC50 (µM)
Give a bare numeral; the unit µM is implied.

Qu. // query IC50 value for entry KLKYIFKRRKTMKKK [compound 39151]
Ans. 51.1

Qu. Then what about the sequence QTAFRKFFKKIISLG [compound 39150] ?
Ans. 83.4

Qu. Then what about the sequence LKPFYSLETMLMANS [compound 39147] ?
Ans. 23

Qu. Then what about the sequence NVRKFFLNDVSSIRH [compound 39148] ?
Ans. 83.4

Qu. Then what about the sequence NYEIYIASSSNIYLM [compound 39046] ?
Ans. 120
